system: IL-6/pSTAT3; test: IL-6 induced pSTAT3 assay in TF-1 cells; type: cell-based; conditions: Homo sapiens, read-out: Cellular selectivity (IL-6/pSTAT3)
pIC50: −log10 of the molar value.
parameterMeasured: pIC50

C[C@@H](c1ccc(Nc2cc(Nc3ncccc3S(C)(=O)=O)ncn2)nc1)N1CC2(COC2)C1 = < 5.00
Cc1cncc(Nc2cc(Nc3ccccc3C(N)=O)ncn2)n1 = > 5.40
CC(NC1CCOC1)c1ccc(Nc2cc(Nc3ccccc3S(C)(=O)=O)ncn2)nc1 (stereo not shown) = < 5.00

# evaluate next
Endpoint output: pIC50 of "CC(C)(NC1COC1)c1ccc(Nc2cc(Nc3ccccc3S(C)(=O)=O)ncn2)nc1" . Value? < 5.00
